Test: Pharmacokinetic study in rats
Type: in vivo, SD rats
Conditions: male, SD, rat, plasma, po, 10 mg/kg, oral gavage, read-out: Absolute Bioavailability(F %)
Kindly state bioavailability for each of the entries shown.

Take a look at these entries with their results.
**Q:** Quickly give me recorded bioavailability for CCOc1ccc(Cc2cc([C@@H]3O[C@H](CO)[C@@H](O)[C@H](O)[C@H]3O)ccc2Cl)cc1 [Dapagliflozin, reference compound]
**A:** 73%

**Q:** For the compound C#CCN(C)CCNC(=O)CCCc1ccc(Cc2cc([C@@H]3O[C@H](SC)[C@@H](O)[C@H](O)[C@H]3O)ccc2C)cc1 [Example 5] , give its reported bioavailability.
**A:** < 1.5%

Continue with the compound presented below.
**Q:** Please give the documented bioavailability of C#CCN(C)CCNC(=O)CCOCc1ccc(Cc2cc([C@@H]3O[C@H](SC)[C@@H](O)[C@H](O)[C@H]3O)ccc2C)cc1 [Example 7]
**A:** < 1.5%

###

Target: UniProt P13866
Sequence (P13866 1-664): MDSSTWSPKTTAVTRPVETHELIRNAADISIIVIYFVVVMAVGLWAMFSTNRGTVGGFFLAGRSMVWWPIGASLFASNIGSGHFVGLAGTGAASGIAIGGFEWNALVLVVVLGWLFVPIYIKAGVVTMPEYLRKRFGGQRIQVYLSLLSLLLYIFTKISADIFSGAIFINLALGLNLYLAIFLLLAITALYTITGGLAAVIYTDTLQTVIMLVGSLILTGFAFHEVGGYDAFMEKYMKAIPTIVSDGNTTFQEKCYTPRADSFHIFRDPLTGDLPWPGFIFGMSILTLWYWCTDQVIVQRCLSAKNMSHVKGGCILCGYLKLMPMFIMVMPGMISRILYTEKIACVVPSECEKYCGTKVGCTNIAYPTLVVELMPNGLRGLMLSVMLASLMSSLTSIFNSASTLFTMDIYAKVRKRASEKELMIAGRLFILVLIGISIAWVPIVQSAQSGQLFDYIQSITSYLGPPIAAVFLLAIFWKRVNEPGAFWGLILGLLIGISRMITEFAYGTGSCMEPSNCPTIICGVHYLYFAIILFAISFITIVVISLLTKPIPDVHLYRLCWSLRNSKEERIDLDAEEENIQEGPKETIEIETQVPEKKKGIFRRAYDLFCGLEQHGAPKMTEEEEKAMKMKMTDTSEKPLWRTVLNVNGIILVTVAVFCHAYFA
Assay: HSGLT1 inhibitor activity experiment: 2-NBDG uptake by HEK293 cells stably expressing human SGLT1
Assay type: cell-based
Parameters: expressed in transfected cells; host or cells: HEK293
Conditions: 2-NBDG uptake, HEK293 stably expressing human SGLT1; read-out: SGLT1 Inhibitory Activity
READOUT_KIND: pIC50
Give bare numbers, as −log10 of the molar value.

# count of solved cases: 3
**Q:** Return pIC50 (reported value) for this compound: CS[C@H]1O[C@@H](c2ccc(C)c(Cc3ccc(CCCC(=O)NCCN(C)Cc4ccccc4)cc3)c2)[C@H](O)[C@@H](O)[C@@H]1O [Example 4]
**A:** 9.00

**Q:** Identify measured pIC50 corresponding to C#CCN(C)CCNC(=O)CCCc1ccc(Cc2cc([C@@H]3O[C@H](SC)[C@@H](O)[C@H](O)[C@H]3O)ccc2C)cc1 [Example 5]
**A:** 9.43

**Q:** Give the value of pIC50 reported for the following: CS[C@H]1O[C@@H](c2ccc(C)c(Cc3ccc(CCCC(=O)NCCN4CCCCC4)cc3)c2)[C@H](O)[C@@H](O)[C@@H]1O [Example 3]
**A:** 9.08

Continuing:
**Q:** Find the measured pIC50 of CS[C@H]1O[C@@H](c2ccc(C)c(Cc3ccc(CCCC(=O)NCCN4CCN(C)CC4)cc3)c2)[C@H](O)[C@@H](O)[C@@H]1O [Example 2] and report it.
**A:** 9.01
